# ASSAY_NAME: 14C assay with IPTG-induced recombinant E. coli cells: 14CO2 captured from [14C]-carboxyl-labeled dicamba
# CONDITION_NOTES: induced recombinant E. coli cells, [14C]-carboxyl-labeled dicamba, 14CO2 capture
OUTCOME_MEASURE: Dicamba Decarboxylase Activity

[[record]]
molecule = "76 (protein, listed as Polymorphum gilvum) MAKKIDIFNHIWPEPFFKALIAHIGEMTDITMRSGAVPMMTNLDRRFEVMDMFGPDYMQVLSLASPPLEKLADPAKALELSRIGSDSLAELCQRYPERFPAFIGTAPLSNPAAVVGECRRAIEDLGAAGMQIFTNVAGKPLDLAEFEPFFEYMASAGKPVWLHPARGEAFADYQTEKRSEYEIWWTFGWPYETSAAMARLVFSRMFDKYPGLKVITHHAGGMVPFFEGRVGPGWDQMGARTTDRDLAAVRKALKRPHLDYFKEFYADTASFGSRKAIEHAIEFFGEDRVLFASDAPFDPEGGPMYIRETMRCIDSLDLTDAQRRKIYHGNATALLGLSL"
outcome_measure = "Dicamba Decarboxylase Activity"
reported = "No"

[[record]]
molecule = "100 (protein, listed as Reinekea blandensis) MAIIDCHGHYTTTPKGVEDYRNAQKAAVAKDPSFKGEKGQVVVSDDEIRESIENNQLKMQRERGTDLTIFSPRASWMGHHIGNEYTSQFWTEHQNDLIRRVCDLFPKNFAPVAQLPQSPGVDPAKSVPEIVRTVEQMGFIGINLNPDPSGGYWKDTSLADRAFYPIYEKMVEYDIPAMIHVSAACNDCFHTTGSHYLGADTTGFQQLIMSDVFKDFPSLKIIIPHGGGAVPYHWGRFRGLMQDQGYAPLEESALKNIYFDTCVYHQRGIDLLLDIVPTQNILFASEMIGAVRGIDPETGHNFDDTKRYIDNNTALNAEEKAMIFEGNARRVFSRLKTD"
outcome_measure = "Dicamba Decarboxylase Activity"
reported = "No"

[[record]]
molecule = "68 (protein, listed as Hoeflea phototrophica) MAIIDAHTHTLCPAVNEKVAGTIKPDSVPYQRDMSPESKEQDHTQFPELKIMFNQVERRLADMARMGIDRQVIAPAPGQQHYWAEPKLLAEISALQNDHVAELVARAPDRFAGIGTLPMTDPDAAVAEITRATRELGLRVFQIDSRVMERELSDASLDPIYAALEAAGAGLMIHPLGFSNGERLTPFFMVNSVAQPLEELLAFNHLVFGGVLDRFPKLKVYIAHGGGFAPFYIGRFDHAWKVRPEVNRLTPSAPSTYLRRIYFDTCVYRTDHIETLVRTVGADRVMLGSDYPFDMGDTDPLGLLNACQGLSDDEKATISSKVAIDFFGLET"
outcome_measure = "Dicamba Decarboxylase Activity"
reported = "No"

[[record]]
molecule = "55 (protein, listed as Serratia sp.) MAKIICLEEHTLDKALVMASMPAALEQAPFLSDWGKTVTDGNLPDRSRPQIEKNDLINIKGADIGRGRLDDMDVAGITMQVLSVGGFPHLISAAEGVDLNRAANDRLADAVNAHPDRFAAFATLPWAQPDSAEKELERAVKELGFKGALLNGRPSTHFLDHPDYDGLLARFNALGVPLYLHPGLPVRSVQQAYYGGFSDEVTARLSMFGWGWHHEAGIHLLRLILSGAFDKYPNLQVISGHWGEMLPFWLQRLDDSLPQAATGLRRTIAQTFKEQVYVTPSGMLTLPHFQFIYALLGAERIIFSVDYPYQTLDGVKAFIQSLPVPEEAKEAIAFRNAERLLGLTS"
outcome_measure = "Dicamba Decarboxylase Activity"
reported = "High"


Cited source for all entries: patent US20160053277A1
